# System: K. pneumoniae P3R (M1-R)
# measurement context: broth microdilution, CLSI guidelines; M1-resistant mutant of ATCC 700603
Square brackets hold non-standard residues; d marks the D form. Peptide text beside a SMILES is read from it. * marks the point of attachment. d(aIle) = CC[C@H](C)[C@@H](N)C(=O)O; X1 = CC[C@H](C)CCCCC(=O)*; dDab = NCC[C@@H](N)C(=O)O; Dab = NCC[C@H](N)C(=O)O
property: Peptide MIC (µg/mL)
Dear colleague, please return just the value in µg/mL, with no unit written.

# compound, study target, Peptide MIC, µg/mL
measured = [
    ("CC[C@H](C)CCCCC(=O)NCC(=O)N[C@H](CCN)C(=O)NCC(=O)N[C@H](CO)C(=O)N[C@H](Cc1ccccc1)C(=O)N[C@@H](CO)C(=O)N[C@@H](CCN)C(=O)N[C@H](CCN)C(=O)N[C@H](C(=O)N[C@@H](CCC(=O)O)C(=O)N[C@H](C(=O)N[C@@H](C(=O)N[C@@H](CO)C(=O)O)C(C)C)[C@@H](C)CC)[C@@H](C)CC [M5] (X1-G[dDab]G[dS][dF]S[Dab][dDab]IEI[dV]S-OH)", "K. pneumoniae P3R (M1-R)", 16),
    ("CC[C@H](C)CCCCC(=O)NCC(=O)N[C@H](CCN)C(=O)NCC(=O)N[C@H](CO)C(=O)N[C@H](Cc1ccccc1)C(=O)N[C@@H](CO)C(=O)N[C@@H](CCN)C(=O)N[C@H](CCN)C(=O)N[C@H](C(=O)N[C@@H](CCC(=O)O)C(=O)N[C@H](C(=O)N[C@@H](C(=O)N[C@@H](CO)C(=O)O)[C@@H](C)CC)[C@@H](C)CC)[C@@H](C)CC [M8] (X1-G[dDab]G[dS][dF]S[Dab][dDab]IEI[d(aIle)]S-OH)", "K. pneumoniae P3R (M1-R)", 128),
    ("CC[C@H](C)CCCCC(=O)NCC(=O)N[C@H](CCN)C(=O)NCC(=O)N[C@H](CO)C(=O)N[C@H](Cc1c[nH]c2ccccc12)C(=O)N[C@@H](CO)C(=O)N[C@@H](CCN)C(=O)N[C@H](CCN)C(=O)N[C@H](C(=O)N[C@@H](CCC(=O)O)C(=O)N[C@H](C(=O)N[C@@H](C(=O)N[C@@H](CO)C(=O)O)[C@@H](C)CC)[C@@H](C)CC)C(C)C [M7] (X1-G[dDab]G[dS][dW]S[Dab][dDab]VEI[d(aIle)]S-OH)", "K. pneumoniae P3R (M1-R)", 16),
    ("CC[C@H](C)CCCCC(=O)NCC(=O)N[C@H](CCN)C(=O)NCC(=O)N[C@H](CO)C(=O)N[C@H](Cc1c[nH]c2ccccc12)C(=O)N[C@@H](CO)C(=O)N[C@@H](CCN)C(=O)N[C@H](CCN)C(=O)N[C@H](C(=O)N[C@@H](CCC(=O)O)C(=O)N[C@H](C(=O)N[C@@H](C(=O)N[C@@H](CO)C(=O)O)C(C)C)[C@@H](C)CC)[C@@H](C)CC [M6] (X1-G[dDab]G[dS][dW]S[Dab][dDab]IEI[dV]S-OH)", "K. pneumoniae P3R (M1-R)", 16),
]

Here is another compound to look at.
input: Under K. pneumoniae P3R (M1-R), report Peptide MIC for CC[C@H](C)CCCCC(=O)NCC(=O)N[C@H](CCN)C(=O)NCC(=O)N[C@H](CO)C(=O)N[C@H](Cc1c[nH]c2ccccc12)C(=O)N[C@@H](CO)C(=O)N[C@@H](CCN)C(=O)N[C@H](CCN)C(=O)N[C@H](C(=O)N[C@@H](CCC(=O)O)C(=O)N[C@H](C(=O)N[C@@H](C(=O)N[C@@H](CO)C(=O)O)[C@@H](C)CC)[C@@H](C)CC)[C@@H](C)CC [M1, tridecaptin M] (X1-G[dDab]G[dS][dW]S[Dab][dDab]IEI[d(aIle)]S-OH)
output: 64
